Hey, just so you know, these numbers are from PubChem BioAssay (NCI).

Test system: SK-MEL-5 melanoma
Experiment: NCI-60 one-dose screen, 48 h
Conditions: 10 µM unless noted
Compounds without any hit were thinned out: in the full panel of roughly 83,000, 20% have a hit. The source made the active and inactive calls. Rule for the calls: active = growth percent below 10; inactive = the rest.
Possible outcomes: active, inactive

INSERT INTO measurements (compound, label_class) VALUES
  ('O=C1C2=C(CCN(Cc3ccccc3)C2)N2CCN=C2N1Cc1ccc(C(F)(F)F)cc1', 'inactive'),
  ('Fc1ccc(Nc2nc3nonc3nc2Nc2ccc(F)cc2)cc1', 'active'),
  ('CCOC(=O)c1nnn(C(Cc2ccccc2Cl)C(=O)OCC)c1C (stereo not given)', 'inactive'),
  ('CS(=O)(=O)c1ccc(-c2[nH]c3ccc(F)cc3c2/C=N/NC(N)=S)cc1', 'inactive'),
  ('CCN(CC)N=Nc1nn(C(=O)Nc2ccc(Cc3ccccc3)cc2)c2ccc(Cl)cc12', 'inactive');

====

System: TK-10 renal
Assay: NCI-60 one-dose screen, 48 h
Conditions: 10 µM unless noted
About 83,000 compounds went through this panel and 20% of them were active in at least one assay; those are over-represented in the sample as a whole. Calls of active or inactive are those of the source. The calls were made as follows: active = growth percent below 10; inactive = the rest.
Possible outcomes: active, inactive

INSERT INTO assay_data (record_smiles, label_class) VALUES
  ('CN1CCN(C(=O)[C@]23CCC(C)(C)C[C@@H]2C2=CC[C@@H]4[C@@]5(C)Cc6c([nH]c7ccccc67)C(C)(C)[C@@H]5CC[C@@]4(C)[C@]2(C)CC3)CC1', 'inactive'),
  ('Cc1nc(Nc2cccc(NC(=O)Nc3ccc(Cl)cc3)c2)c2ccccc2n1', 'inactive'),
  ('C(=C\c1nc2ccccc2[nH]1)/c1nc2ccccc2[nH]1', 'inactive'),
  ('Cc1ccccc1NC(=O)CN(C)C', 'inactive'),
  ('O=C(NC(=S)Nc1ccc(-c2nc3ccccc3[nH]2)cc1)c1ccc2ccccc2c1', 'active'),
  ('N#Cc1c(N)nc2c(nnn2-c2cccc(Br)c2)c1N', 'inactive'),
  ('CCN(CC)CCCNC(=O)c1ccc(N)cc1O', 'inactive'),
  ('COc1ccc(/C=C2\C=C(c3ccccc3)N(CCc3ccccc3)C2=O)cc1OC', 'active'),
  ('CCNCCNc1cc(-c2ccc(F)cc2)c(C#N)c2nc3ccccc3n12', 'inactive'),
  ('CCCc1cc(=O)oc2c3c(c4c(c12)OC(C)(C)C=C4)O[C@@H](C)[C@H](C)C3=O', 'inactive'),
  ('O=C(O)c1ccc(CO)o1', 'inactive');

====

Tested on: SNB-19 CNS
Assay: NCI-60 one-dose screen, 48 h
Conditions: 10 µM unless noted
This is part of a sample that, as a whole, favours compounds with a hit. Of some 83,000 tested, about 20% had one in any assay. Activity calls are given as the source filed them. How the source made its calls: active means growth percent below 10; inactive means the rest.
Possible outcomes: active, inactive

INSERT INTO assay_data (molecule, label_class) VALUES
  ('COc1cc2c(cc1OC)-c1ccc3cc4c(cc3c1N(CCCN(C)C)C2)OCO4', 'inactive'),
  ('COc1cc2c(cc1OC)-c1ccc3cc4c(cc3c1N(CCN1CCCC1)C2)OCO4', 'active'),
  ('COc1ccc(C2CC(c3ccc4ccccc4c3)=NN2c2nc(O)c(C3=c4cc(Cl)ccc4=NC3=O)s2)cc1 (centres undefined)', 'active'),
  ('Cc1nc(Nc2ccc(NC(=S)Nc3ccccc3)cc2)c2ccccc2n1', 'inactive'),
  ('COc1ccc(/C=C(\C#N)n2nnc3cc(F)c(F)cc32)c(OC)c1OC', 'inactive'),
  ('NC(=O)c1c(NC(=O)c2ccc(C(F)(F)F)cc2Cl)sc2c1CCC(=O)C2', 'inactive'),
  ('N#C/C(=C\c1ccc(Br)cc1)n1nnc2ccccc21', 'inactive'),
  ('C=C(C)[C@@H]1CC[C@]2(C(=O)NCC(=O)O)CC[C@]3(C)[C@H](CC[C@@H]4[C@@]5(C)Cc6c([nH]c7ccccc67)C(C)(C)[C@@H]5CC[C@]43C)[C@@H]12', 'inactive'),
  ('CCCCCCCCn1cc(C2=C(c3coc4ccc(OC)cc34)C(=O)NC2=O)c2ccccc21', 'inactive');
